target_or_system: T1, human corticotrophin releasing hormone receptor type 2 (CRHR2) (human, UniProt Q13324 1-411)
T1 sequence (looked up): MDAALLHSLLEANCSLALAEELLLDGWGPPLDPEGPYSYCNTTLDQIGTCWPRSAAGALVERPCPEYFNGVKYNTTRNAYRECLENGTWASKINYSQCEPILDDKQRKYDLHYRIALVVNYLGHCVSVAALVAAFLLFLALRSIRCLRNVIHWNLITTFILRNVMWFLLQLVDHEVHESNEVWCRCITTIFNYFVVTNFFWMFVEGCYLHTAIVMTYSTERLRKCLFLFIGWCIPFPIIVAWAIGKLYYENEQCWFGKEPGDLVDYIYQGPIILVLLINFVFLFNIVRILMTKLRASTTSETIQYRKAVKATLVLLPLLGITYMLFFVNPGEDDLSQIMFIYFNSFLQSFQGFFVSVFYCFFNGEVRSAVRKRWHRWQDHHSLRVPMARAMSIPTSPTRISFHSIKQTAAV
assay_info: cell-based or functional assay
Quick list: pA50 per entry.

>>> result("TKFTLSLDVPTNIMNLLFNIAKAKNLRCQAAANAHLMAQI (NES-PEG MW30000 on Cys 28; C-terminal amide (-NH2)) [Pegylated Cys-variant stresscopin-like peptide, NES-PEG MW30000, SEQ ID NO: 99]")
"8.94 -log10(M)"
>>> result("TKFTLSLDVPTNIMNLLFNIAKAKCLRAQAAANAHLMAQI (NES-PEG (about 20 kDa) on Cys 25; C-terminal amide (-NH2)) [Pegylated Cys-variant stresscopin-like peptide with NES linker and PEG about 20 kDa SEQ ID NO: 79]")
"8.5 -log10(M)"
>>> result("TKCTLSLDVPTNIMNLLFNIAKAKNLRAQAAANAHLMAQI (NES-PEG (about 20 kDa) on Cys 3; C-terminal amide (-NH2)) [Pegylated Cys-variant stresscopin-like peptide with NES linker and PEG about 20 kDa SEQ ID NO: 57]")
"~7.64 -log10(M)"

Prompt: Consider the binder shown here: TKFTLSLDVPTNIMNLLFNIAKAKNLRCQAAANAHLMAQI (NES-PEG MW12000 on Cys 28; C-terminal amide (-NH2)) [Pegylated Cys-variant stresscopin-like peptide, NES-PEG MW12000, SEQ ID NO: 97] What is its recorded pA50?
Response: ~9 -log10(M)
